Molecular target: AgLsb1
Assay: SPOT peptide array binding signal intensity (averaged, normalized) (arbitrary units (background-subtracted, floor 0; scale differs between SH3 domains)); higher = stronger binding of the SH3 domain to the peptide
outcome_measure: SPOT peptide array binding signal intensity

[
  {
    "binder": "EEEEEHPPLPARRKS",
    "operator": "=",
    "recorded_value": 20.5
  },
  {
    "binder": "NSMRPPLLIPAATTK",
    "operator": "=",
    "recorded_value": 128
  },
  {
    "binder": "VQKRKLPLPGSIASA",
    "operator": "≤",
    "recorded_value": 0
  },
  {
    "binder": "RFKRHRLEFPFNESE",
    "operator": "=",
    "recorded_value": 1.5
  },
  {
    "binder": "RPPRPPPKPLHLRTE",
    "operator": "=",
    "recorded_value": 27
  },
  {
    "binder": "DAPASKPSVPPRNYF",
    "operator": "=",
    "recorded_value": 1080
  },
  {
    "binder": "VPKEPAPAPPPEPDM",
    "operator": "≤",
    "recorded_value": 0
  }
]
